# Assay text: Absorption behavior was judged by the peak blood concentration determined after oral dose of 30 mg/kg in rats.
# Assay type: ADME, organism-based
# Parameters: dose 30 mg/kg, route oral
# Conditions: rat
Measured metric: Cmax (nM)
One number for each entry, in nM.

CCCc1ccc(S(=O)(=O)N[C@@H](Cc2ccc(C(N)=NN)cc2)C(=O)N(C)C2CCCC2)cc1 ... 1170
CN(C(=O)[C@H](Cc1ccc(C(N)=NN)c(F)c1)NS(=O)(=O)c1ccc2ccccc2c1)C1CCCC1 ... 4130
CCCc1ccc(S(=O)(=O)N[C@@H](Cc2ccc(C(=N)NN)c(F)c2)C(=O)N(C)C2CCCC2)cc1 ... 2780
CN(C(=O)[C@H](Cc1ccc(C(=N)NN)cc1)NS(=O)(=O)c1ccc2ccccc2c1)C1CCCC1 ... 1610
CN(C(=O)[C@H](Cc1ccc(C(N)=NN)cc1)NS(=O)(=O)c1ccc2c(c1)CCCC2)C1CCCC1 ... 360

# map each molecule to its Cmax
1. CN(C(=O)[C@H](Cc1ccc(C(N)=NN)c(F)c1)NS(=O)(=O)c1ccc2c(c1)CCCC2)C1CCCC1
2. COc1ccc2cc(S(=O)(=O)N[C@@H](Cc3ccc(C(N)=NN)cc3F)C(=O)N(C)C3CCCC3)ccc2c1
3. CN(C(=O)[C@H](Cc1ccc(C(=N)NN)cc1F)NS(=O)(=O)c1ccc2c(c1)CCCC2)C1CCCC1
4. COc1ccc2cc(S(=O)(=O)N[C@@H](Cc3ccc(C(N)=NN)cc3)C(=O)N(C)C3CCCC3)ccc2c1
5. CCCc1ccc(S(=O)(=O)N[C@@H](Cc2ccc(C(N)=NN)cc2F)C(=O)N(C)C2CCCC2)cc1
6. CN(C(=O)[C@H](Cc1ccc(C(=N)NN)cc1F)NS(=O)(=O)c1ccc2ccccc2c1)C1CCCC1

Result:
1: 1340; 2: 2410; 3: 1030; 4: 1130; 5: 1350; 6: 1630

----------
# Assay text: Absorption behavior was judged by the area under the curve, determined after oral dose of 30 mg/kg in rats.
# Format: ADME, organism-based
# Design: dose 30 mg/kg, route oral
# Conditions: rat, in vivo
Measured metric: AUC

Below are worked cases with known answers.
CN(C(=O)[C@H](Cc1ccc(C(N)=NN)c(F)c1)NS(=O)(=O)c1ccc2ccccc2c1)C1CCCC1 ... 6.67 µM·h
CCCc1ccc(S(=O)(=O)N[C@@H](Cc2ccc(C(=N)NN)c(F)c2)C(=O)N(C)C2CCCC2)cc1 ... 4.17 µM·h
CN(C(=O)[C@H](Cc1ccc(C(=N)NN)cc1F)NS(=O)(=O)c1ccc2c(c1)CCCC2)C1CCCC1 ... 1.37 µM·h
CN(C(=O)[C@H](Cc1ccc(C(=N)NN)cc1)NS(=O)(=O)c1ccc2ccccc2c1)C1CCCC1 ... 2.33 µM·h
COc1ccc2cc(S(=O)(=O)N[C@@H](Cc3ccc(C(N)=NN)cc3)C(=O)N(C)C3CCCC3)ccc2c1 ... 2.62 µM·h

# map each molecule to its AUC
1. CN(C(=O)[C@H](Cc1ccc(C(N)=NN)c(F)c1)NS(=O)(=O)c1ccc2c(c1)CCCC2)C1CCCC1
2. CN(C(=O)[C@H](Cc1ccc(C(=N)NN)cc1F)NS(=O)(=O)c1ccc2ccccc2c1)C1CCCC1

Result:
1. 1.63 µM·h
2. 1.83 µM·h

----------
# Target of assay: Serine protease 1 (Bos taurus)
# Assay text: Inhibitory constant against bovine trypsin was determined in vitro
Measured metric: pKi
One number for each entry, as −log10 of the molar value.

Query: Would you mind telling me what pKi value was observed for CCCc1ccc(S(=O)(=O)N[C@@H](Cc2ccc(C(N)=NN)cc2)C(=O)N(C)C2CCCC2)cc1 ?
Result: 5.46

----------
Consider the following molecules; for each one, report its pKi.
# Target of assay: Serine protease 1 (Bos taurus, UniProt P00760)
# Assay text: Inhibitory constant against bovine trypsin was determined in vitro.
One number for each entry, as −log10 of the molar value.

COc1ccc2cc(S(=O)(=O)N[C@@H](Cc3ccc(C(N)=NN)cc3F)C(=O)N(C)C3CCCC3)ccc2c1 ... 5.70
COc1ccc2cc(S(=O)(=O)N[C@@H](Cc3ccc(C(N)=NN)cc3)C(=O)N(C)C3CCCC3)ccc2c1 ... 5.04
CN(C(=O)[C@H](Cc1ccc(C(=N)NN)cc1F)NS(=O)(=O)c1ccc2ccccc2c1)C1CCCC1 ... 4.96
CN(C(=O)[C@H](Cc1ccc(C(=N)NN)cc1F)NS(=O)(=O)c1ccc2c(c1)CCCC2)C1CCCC1 ... 5.52

# map each molecule to its pKi
1. CN(C(=O)[C@H](Cc1ccc(C(=N)NN)cc1)NS(=O)(=O)c1ccc2ccccc2c1)C1CCCC1
2. CCCc1ccc(S(=O)(=O)N[C@@H](Cc2ccc(C(=N)NN)c(F)c2)C(=O)N(C)C2CCCC2)cc1

Result:
1: 4.48; 2: 4.66

----------
# Target of assay: Prothrombin (Homo sapiens)
# Assay text: Inhibitory constant against human thrombin was determined in vitro
Measured metric: pKi
Give bare numbers, as −log10 of the molar value.

Query: // fetch Prothrombin (Homo sapiens) pKi for CCCc1ccc(S(=O)(=O)N[C@@H](Cc2ccc(C(N)=NN)cc2)C(=O)N(C)C2CCCC2)cc1
Result: 9.70

----------
Consider the following molecules; for each one, report its pKi.
# Target of assay: Prothrombin (Homo sapiens, UniProt P00734)
# Assay text: Inhibitory constant against human thrombin was determined in vitro.
Numbers only, as −log10 of the molar value.

Below are worked cases with known answers.
CN(C(=O)[C@H](Cc1ccc(C(=N)NN)cc1F)NS(=O)(=O)c1ccc2c(c1)CCCC2)C1CCCC1 ... 9.30
CN(C(=O)[C@H](Cc1ccc(C(N)=NN)c(F)c1)NS(=O)(=O)c1ccc2ccccc2c1)C1CCCC1 ... 8.26
CN(C(=O)[C@H](Cc1ccc(C(=N)NN)cc1)NS(=O)(=O)c1ccc2ccccc2c1)C1CCCC1 ... 9.40
CCCc1ccc(S(=O)(=O)N[C@@H](Cc2ccc(C(=N)NN)c(F)c2)C(=O)N(C)C2CCCC2)cc1 ... 8.74
COc1ccc2cc(S(=O)(=O)N[C@@H](Cc3ccc(C(N)=NN)cc3)C(=O)N(C)C3CCCC3)ccc2c1 ... 10.22

# map each molecule to its pKi
1. CN(C(=O)[C@H](Cc1ccc(C(N)=NN)c(F)c1)NS(=O)(=O)c1ccc2c(c1)CCCC2)C1CCCC1
2. COc1ccc2cc(S(=O)(=O)N[C@@H](Cc3ccc(C(N)=NN)cc3F)C(=O)N(C)C3CCCC3)ccc2c1
3. CN(C(=O)[C@H](Cc1ccc(C(=N)NN)cc1F)NS(=O)(=O)c1ccc2ccccc2c1)C1CCCC1
4. CN(C(=O)[C@H](Cc1ccc(C(N)=NN)cc1)NS(=O)(=O)c1ccc2c(c1)CCCC2)C1CCCC1
5. CCCc1ccc(S(=O)(=O)N[C@@H](Cc2ccc(C(N)=NN)cc2F)C(=O)N(C)C2CCCC2)cc1

Result:
1. 9.05
2. 9.70
3. 8.70
4. 10.00
5. 9.15

----------
# Assay text: Absorption behavior was judged by the area under the curve, determined after oral dose of 30 mg/kg in rats.
# Assay type: ADME, organism-based
# Set-up: dose 30 mg/kg, route oral
# Conditions: rat, in vivo
Consider the following compounds; for each one, report its AUC.
Numbers only, in µM·h.

CN(C(=O)[C@H](Cc1ccc(C(N)=NN)cc1)NS(=O)(=O)c1ccc2c(c1)CCCC2)C1CCCC1 ... 0.817
CCCc1ccc(S(=O)(=O)N[C@@H](Cc2ccc(C(N)=NN)cc2F)C(=O)N(C)C2CCCC2)cc1 ... 2.68
COc1ccc2cc(S(=O)(=O)N[C@@H](Cc3ccc(C(N)=NN)cc3F)C(=O)N(C)C3CCCC3)ccc2c1 ... 3.28

Next up:
Query: Would you mind telling me what AUC value was observed for CCCc1ccc(S(=O)(=O)N[C@@H](Cc2ccc(C(N)=NN)cc2)C(=O)N(C)C2CCCC2)cc1 ?
Result: 2.23

----------
# Target of assay: Serine protease 1 (Bos taurus)
# Sequence (P00760 whole entry): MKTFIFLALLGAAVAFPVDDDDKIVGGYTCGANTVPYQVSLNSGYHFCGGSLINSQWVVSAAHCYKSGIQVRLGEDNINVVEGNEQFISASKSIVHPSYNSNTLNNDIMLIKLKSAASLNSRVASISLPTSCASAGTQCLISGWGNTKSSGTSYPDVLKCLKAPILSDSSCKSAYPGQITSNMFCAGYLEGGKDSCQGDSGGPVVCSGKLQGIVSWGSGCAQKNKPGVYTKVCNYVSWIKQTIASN
# Assay text: Inhibitory constant against bovine trypsin was determined in vitro.
Measured metric: pKi
One number for each entry, as −log10 of the molar value.

# map each compound to its pKi
1. CN(C(=O)[C@H](Cc1ccc(C(N)=NN)c(F)c1)NS(=O)(=O)c1ccc2ccccc2c1)C1CCCC1
2. CN(C(=O)[C@H](Cc1ccc(C(N)=NN)c(F)c1)NS(=O)(=O)c1ccc2c(c1)CCCC2)C1CCCC1

Result:
4.60
4.60

# map each compound to its pKi
1. CCCc1ccc(S(=O)(=O)N[C@@H](Cc2ccc(C(N)=NN)cc2F)C(=O)N(C)C2CCCC2)cc1
2. CN(C(=O)[C@H](Cc1ccc(C(N)=NN)cc1)NS(=O)(=O)c1ccc2c(c1)CCCC2)C1CCCC1

Result:
5.40
5.34
